Assay: folding enthalpy; higher = less favourable; fluorescence melt of hairpins on a sequencing array, two-state fit
Conditions: sodium 0.088 M
quantity_name: folding enthalpy (kcal/mol)
Write it as a number; the unit kcal/mol goes unstated.

Problem: What does the data say about its folding enthalpy? Entry: GCACGCCGAAAGGCTGC (((.(((....))))))
Solution: -21.8

Problem: Reported folding enthalpy for GTCTCCGAAAGGACGAC ((((((....))).))) : what is it?
Solution: -27.5

Problem: # input sequence: GCGTCACCACGC ((((....)))) ; wanted: its folding enthalpy
Solution: -22.7

Problem: What measured folding enthalpy goes with GCGGTTGCCGC ((((...)))) ?
Solution: -21.2

Problem: State the recorded folding enthalpy for this entry: GGAGACGAAAGTCAGTCC ((((((....)))..)))
Solution: -13.6

Problem: Entry under review: GTTGCTCGAAAGAGGAAC (((.(((....))).))) . Reported folding enthalpy?
Solution: -38.2

Problem: Form field: reported folding enthalpy of GGTCACGAAAGTGGTACC ((((((....)))..)))
Solution: -14.3

Problem: Need folding enthalpy, item GTCGACTCGAAAGAGGAC (((..(((....))))))
Solution: -16.9

Problem: Item CGGCCCGGAAACGGCCG (((.(((....)))))) has what recorded folding enthalpy?
Solution: -31

Problem: Sample GGGTTAGGAAACTAATCC ((.((((....)))).)) — what was its folding enthalpy?
Solution: -35.1

Problem: What value of folding enthalpy has been reported for the following sequence? GCATCCGAAAGGACTGC ((((((....))).)))
Solution: -15

Problem: Name the recorded folding enthalpy for GCGGTAACGAAAGTTCGC (((..(((....)))))) .
Solution: -26.7

Problem: Looking for the measured folding enthalpy of GATCCCTTTGGGATC ((((((...)))))) , can you help?
Solution: -40.6

Values were extracted from the array DNA melting data of Ke et al. (doi:10.1101/2024.01.08.574731).
